// provenance: patent US11939307B2

system: HCV; assay: Assay of anti-HCV activity in HCV-infected Huh7.5 cells (intracellular HCV RNA by one-step quantitative RT-PCR); type: cell-based; settings: Hepatitis C virus; compound at 1 μM; Huh7.5 cells infected with HCV; 96 hrs; intracellular HCV RNA vs viral control; read-out: inhibitory activities (inhibitory levels of the compounds against HCV replication)
recorded_metric: inhibition at 1 µM

item_smiles	inhibition at 1 µM
CN1CCCN(c2ccc(C#N)c(CN3CCN(C(c4ccc(Cl)cc4)c4ccc(Cl)cc4)CC3)c2)CC1	> 75%
CN(C)CCN(C)c1ccc(C(F)(F)F)c(CN2CCN(c3ccc(Br)cc3)CC2)c1	> 75%
CN(C)CCN(C)c1ccc(C#N)c(CN2CCN(C(c3ccncc3)c3ccncc3)CC2)c1	50 to 75%

Q. Supply reported inhibition at 1 µM belonging to this compound: "FC(F)(F)c1ccc(N2CCC(N3CCCC3)CC2)cc1CN1CCN(c2ccc(Cl)cc2)CC1"
A. > 75%

###

system: HCV; experiment: Assay of anti-HCV activity in HCV-infected Huh7.5 cells (intracellular HCV RNA by one-step quantitative RT-PCR); format: cell-based; conditions: Hepatitis C virus; compound at 1 μM; Huh7.5 cells infected with HCV; 96 hrs; intracellular HCV RNA vs viral control; read-out: inhibitory activities (inhibitory levels of the compounds against HCV replication)
recorded_metric: inhibition at 1 µM

Worked cases, inhibition at 1 µM given:
compound	system_under_test	inhibition at 1 µM
Cc1ccc(C(c2ccc(C)cc2)N2CCN(Cc3cc(N4CCCN(C)CC4)ccc3C(F)(F)F)CC2)cc1	HCV	> 75%
CN(C)C1CCN(c2ccc(C(F)(F)F)c(CN3CCN(c4ccc(Cl)cc4)CC3)c2)C1 (stereo not drawn)	HCV	> 75%
CC1CN(c2ccc(Cl)c(C(F)(F)F)c2)CCN1Cc1cc(N2CCCN(C)CC2)ccc1C(F)(F)F (stereo not drawn)	HCV	> 75%
CN(CCN1CCCC1)c1ccc(C(F)(F)F)c(CN2CCN(C(c3ccc(Cl)cc3)c3ccc(Cl)cc3)CC2)c1	HCV	> 75%
CN(CC1CCCCN1C)c1ccc(C(F)(F)F)c(CN2CCN(c3ccc(Cl)cc3)CC2)c1 (stereo not drawn)	HCV	> 75%
CN1CCCN(c2ccc(C(F)(F)F)c(CN3CCN(C(c4ccc(Cl)c(Cl)c4)C4CCCCC4)CC3)c2)CC1 (stereo not drawn)	HCV	> 75%
CCN(CC)CCN(C)c1ccc(C(F)(F)F)c(CN2CCN(C(c3ccc(Cl)c(Cl)c3)c3ccc(Cl)c(Cl)c3)CC2)c1	HCV	> 75%
CN(C)CCN(C)c1ccc(C(F)(F)F)c(CN2CCN(C(c3ccc(F)cc3)c3ccc(F)cc3)CC2)c1	HCV	> 75%
CN1CCCN(c2ccc(C(F)(F)F)c(CN3CCN(c4ccc(Cl)c(Cl)c4)CC3)c2)CC1	HCV	> 75%
CN(C)C1CCCN(c2ccc(C(F)(F)F)c(CN3CCN(C(c4ccc(Cl)cc4)c4ccc(Cl)cc4)CC3)c2)C1 (stereo not drawn)	HCV	> 75%

Hey, quick one: what's inhibition at 1 µM for each of these?
1. CN1CCN(c2ccc(C#N)c(CN3CCN(C(c4ccc(Cl)cc4)c4ccc(Cl)cc4)CC3)c2)CC1
2. CN(CC1CCCN1C)c1ccc(C(F)(F)F)c(CN2CCN(C(c3ccc(Cl)cc3)c3ccc(Cl)cc3)CC2)c1 (stereo not drawn)
3. CCN1CCCC1CN(C)c1ccc(C(F)(F)F)c(CN2CCN(c3ccc(Cl)cc3)CC2)c1 (stereo not drawn)
4. CCCN(C)CCN(C)c1ccc(C(F)(F)F)c(CN2CCN(C(c3ccc(Cl)cc3)c3ccc(Cl)cc3)CC2)c1
5. CC1CN(c2ccc(Cl)cc2)CCN1Cc1cc(N2CCCN(C)CC2)ccc1C(F)(F)F (stereo not drawn)

A.
1: > 75%; 2: > 75%; 3: > 75%; 4: > 75%; 5: > 75%

###

Tested on: HCV
Assay: Assay of anti-HCV activity in HCV-infected Huh7.5 cells (intracellular HCV RNA by one-step quantitative RT-PCR)
Format: cell-based
Settings: Hepatitis C virus; compound at 1 μM; Huh7.5 cells infected with HCV; 96 hrs; intracellular HCV RNA vs viral control; read-out: inhibitory activities (inhibitory levels of the compounds against HCV replication)
Protocol: 100 μL Huh7.5 cells were seeded at a density of 1×10^5/mL in a 96-well cell culture plate and incubated in an incubator at 37° C., 5% CO2 and saturated humidity for 6 hrs. […] After continuing incubation for 96 hrs, the total intracellular RNA was extracted separately, and the content of intracellular HCV RNA was measured by one-step quantitative RT-PCR, compared with the RNA level of the viral control, and the inhibition rate of the compounds against HCV was calculated.
So I've got a bunch of compounds here, and I need their inhibition at 1 µM values.

Worked cases, inhibition at 1 µM given:
compound	recorded_metric	endpoint_result
CN1CCCN(c2ccc(C(F)(F)F)c(CN3CCN(Cc4ccc(Cl)cc4)CC3)c2)CC1	inhibition at 1 µM	> 75%
Cc1cc(N2CCN(Cc3cc(N4CCCN(C)CC4)ccc3C(F)(F)F)CC2)ccc1Cl	inhibition at 1 µM	> 75%
CN(C)CCN(C)c1ccc(C#N)c(CN2CCN(C(c3ccc(Cl)cc3)c3ccc(Cl)cc3)CC2)c1	inhibition at 1 µM	> 75%
CCN1CCCN(c2ccc(C(F)(F)F)c(CN3CCN(c4ccc(C)c(Cl)c4)CC3)c2)CC1	inhibition at 1 µM	> 75%

Hey, quick one: what's inhibition at 1 µM for each of these?
1. CCCN(CCN(C)C)c1ccc(C(F)(F)F)c(CN2CCN(C(c3ccc(Cl)cc3)c3ccc(Cl)cc3)CC2)c1
2. CN(CCN1CCC1)c1ccc(C(F)(F)F)c(CN2CCN(C(c3ccc(Cl)cc3)c3ccc(Cl)cc3)CC2)c1
3. CN(C)CCN(C)c1ccc(C#N)c(CN2CCN(C(c3ccc(C4CC4)cc3)c3ccc(C4CC4)cc3)CC2)c1
4. CN(C)CCN(C)c1ccc(C(F)(F)F)c(CN2CCC(c3ccc(Cl)c(Cl)c3)CC2)c1
5. CN(C)CCN(C)c1ccc(C(F)(F)F)c(CN2CCN(C(c3ccc(C(F)(F)F)cc3)c3ccc(C(F)(F)F)cc3)CC2)c1
6. CN(CC1CCCN1C)c1ccc(C(F)(F)F)c(CN2CCN(c3ccc(Br)cc3)CC2)c1 (stereo not drawn)
7. CN(C)CCN(C)c1ccc(C(F)(F)F)c(CN2CCN(c3ccc(Br)c(Cl)c3)CC2)c1

A.
1. > 75%
2. 50 to 75%
3. > 75%
4. > 75%
5. > 75%
6. > 75%
7. > 75%

###

So I've got a bunch of compounds here, and I need their inhibition at 1 µM values.
test system: HCV; experiment: Assay of anti-HCV activity in HCV-infected Huh7.5 cells (intracellular HCV RNA by one-step quantitative RT-PCR); type: cell-based; settings: Hepatitis C virus; compound at 1 μM; Huh7.5 cells infected with HCV; 96 hrs; intracellular HCV RNA vs viral control; read-out: inhibitory activities (inhibitory levels of the compounds against HCV replication)

Worked cases, inhibition at 1 µM given:
compound	endpoint_result
CN1CCCN(c2ccc(C(F)(F)F)c(CN3CCN(C(c4ccc(Oc5ccccc5)cc4)c4ccccn4)CC3)c2)CC1 (stereo not shown)	50 to 75%
CCN(C)CCN(C)c1ccc(C#N)c(CN2CCN(C(C)c3cnccn3)CC2)c1 (stereo not shown)	50 to 75%
COc1ccc(C(c2ccc(OC)cc2)N2CCN(Cc3cc(N(C)CCN(C)C)ccc3C(F)(F)F)CC2)cc1	> 75%

Moving on to the next compound.
Q. Supply reported inhibition at 1 µM belonging to this compound: "CN(CCn1ccnc1)c1ccc(C#N)c(CN2CCN(C(c3ccc(Cl)cc3)c3ccc(Cl)cc3)CC2)c1"
A. > 75%

###

So I've got a bunch of molecules here, and I need their inhibition at 1 µM values.
test system: HCV; assay: Assay of anti-HCV activity in HCV-infected Huh7.5 cells (intracellular HCV RNA by one-step quantitative RT-PCR); assay type: cell-based; conditions: Hepatitis C virus; compound at 1 μM; Huh7.5 cells infected with HCV; 96 hrs; intracellular HCV RNA vs viral control; read-out: inhibitory activities (inhibitory levels of the compounds against HCV replication)

Worked cases, inhibition at 1 µM given:
molecule	system_under_test	inhibition at 1 µM
CN1CCCN(c2ccc(C(F)(F)F)c(CN3CCC(Cc4ccc(Cl)cc4)CC3)c2)CC1	HCV	50 to 75%
CN1CCCN(c2ccc(C#N)c(CN3CCN(C(c4ccc(F)cc4)c4ccc(F)cc4)CC3)c2)CC1	HCV	> 75%
CN1CCN(c2ccc(C#N)c(CN3CCN(C(c4ccc(C(F)(F)F)cc4)c4cnccn4)CC3)c2)CC1 (stereo not shown)	HCV	50 to 75%
CN1CCCN(c2ccc(C(F)(F)F)c(CN3CCN(C(c4ccc(Cl)cc4)c4ccc(Cl)cc4)CC3)c2)CC1	HCV	> 75%
CC(c1ccc(C#N)cc1)N1CCN(Cc2cc(N(C)CCN(C)C)ccc2C(F)(F)F)CC1 (stereo not shown)	HCV	> 75%

Hey, quick one: what's inhibition at 1 µM for each of these?
1. CCN1CCCN(c2ccc(C(F)(F)F)c(CN3CCN(C(c4ccccn4)c4ccccn4)CC3)c2)CC1
2. CN1CCCN(c2ccc(C#N)c(CN3CCN(C(c4ccncc4)c4ccc(Cl)cc4)CC3)c2)CC1 (stereo not shown)
3. CN1CCCN(c2ccc(C(F)(F)F)c(CN3CCN(c4ccc(Cl)cc4)CC3)c2)CC1

A.
1: 50 to 75%; 2: > 75%; 3: > 75%

Hey, quick one: what's inhibition at 1 µM for each of these?
1. CC1CN(c2ccc(Br)c(C(F)(F)F)c2)CCN1Cc1cc(N(C)CCN(C)C)ccc1C(F)(F)F (stereo not shown)
2. CCN(CC)CCN(C)c1ccc(C#N)c(CN2CCN(Cc3ccc(F)c(Cl)c3)CC2)c1
3. CC(c1ccccc1)N1CCN(Cc2cc(N3CCCC(N(C)C)C3)ccc2C#N)CC1 (stereo not shown)
4. CN1CCC(N(C)c2ccc(C(F)(F)F)c(CN3CCN(c4ccc(Cl)cc4)CC3)c2)C1 (stereo not shown)
5. CN(C)CCN(C)c1ccc(C(F)(F)F)c(CN2CCN(C(c3ccc(Cl)cc3)c3ccc(Cl)cc3)CC2)c1

A.
["> 75%", "> 75%", "50 to 75%", "> 75%", "> 75%"]

Hey, quick one: what's inhibition at 1 µM for each of these?
1. CC(C)c1ccc(C(c2ccc(C(C)C)cc2)N2CCN(Cc3cc(N(C)CCN(C)C)ccc3C#N)CC2)cc1
2. CC1CN(C(c2ccc(Cl)cc2)c2ccc(Cl)cc2)CCN1Cc1cc(N2CCCN(C)CC2)ccc1C(F)(F)F (stereo not shown)
3. CN1CCCN(c2ccc(C(F)(F)F)c(CN3CCN(C(c4ccccc4)c4ccccn4)CC3)c2)CC1 (stereo not shown)
4. N#Cc1ccc(NCCCn2cccc2)cc1CN1CCN(Cc2ccc(Cl)c(Cl)c2)CC1
5. CC1CN(c2ccc(Cl)cc2)CCN1Cc1cc(N(C)CN2CCCCC2)ccc1C(F)(F)F (stereo not shown)
6. CC(c1ccc(Br)cc1)N1CCN(Cc2cc(N3CCCN(C)CC3)ccc2C(F)(F)F)CC1 (stereo not shown)

A.
["> 75%", "> 75%", "50 to 75%", "> 75%", "> 75%", "> 75%"]
